The values you see were collected from ChEMBL document CHEMBL5120851.

Test: Volume of distribution at steady state in ICR mouse at 10 mg/kg, iv measured upto 24 hrs
Format: ADME, organism-based
Conditions: in vivo, read-out: Vdss
measurementKind: Vd (L/kg)
Give bare numbers, in L/kg.

(Q) Given Cl.O=C(CO/N=C1/C(=C2/C(=O)Nc3ccccc32)Nc2ccccc21)N[C@@H]1CCNC1 , respond with its Vd.
(A) 103

====

Assay: Half life in ICR mouse at 10 mg/kg, iv measured upto 24 hrs
Type: ADME, organism-based
Conditions: in vivo
measurementKind: half-life
Field note: include the unit after the figure.

(Q) Given Cl.O=C(CO/N=C1/C(=C2/C(=O)Nc3ccccc32)Nc2ccccc21)N[C@@H]1CCNC1 , respond with its half-life.
(A) 3.7 h

====

Biological target: Receptor-type tyrosine-protein kinase FLT3 (Homo sapiens)
Sequence (P36888 whole entry, the tested form may be a part): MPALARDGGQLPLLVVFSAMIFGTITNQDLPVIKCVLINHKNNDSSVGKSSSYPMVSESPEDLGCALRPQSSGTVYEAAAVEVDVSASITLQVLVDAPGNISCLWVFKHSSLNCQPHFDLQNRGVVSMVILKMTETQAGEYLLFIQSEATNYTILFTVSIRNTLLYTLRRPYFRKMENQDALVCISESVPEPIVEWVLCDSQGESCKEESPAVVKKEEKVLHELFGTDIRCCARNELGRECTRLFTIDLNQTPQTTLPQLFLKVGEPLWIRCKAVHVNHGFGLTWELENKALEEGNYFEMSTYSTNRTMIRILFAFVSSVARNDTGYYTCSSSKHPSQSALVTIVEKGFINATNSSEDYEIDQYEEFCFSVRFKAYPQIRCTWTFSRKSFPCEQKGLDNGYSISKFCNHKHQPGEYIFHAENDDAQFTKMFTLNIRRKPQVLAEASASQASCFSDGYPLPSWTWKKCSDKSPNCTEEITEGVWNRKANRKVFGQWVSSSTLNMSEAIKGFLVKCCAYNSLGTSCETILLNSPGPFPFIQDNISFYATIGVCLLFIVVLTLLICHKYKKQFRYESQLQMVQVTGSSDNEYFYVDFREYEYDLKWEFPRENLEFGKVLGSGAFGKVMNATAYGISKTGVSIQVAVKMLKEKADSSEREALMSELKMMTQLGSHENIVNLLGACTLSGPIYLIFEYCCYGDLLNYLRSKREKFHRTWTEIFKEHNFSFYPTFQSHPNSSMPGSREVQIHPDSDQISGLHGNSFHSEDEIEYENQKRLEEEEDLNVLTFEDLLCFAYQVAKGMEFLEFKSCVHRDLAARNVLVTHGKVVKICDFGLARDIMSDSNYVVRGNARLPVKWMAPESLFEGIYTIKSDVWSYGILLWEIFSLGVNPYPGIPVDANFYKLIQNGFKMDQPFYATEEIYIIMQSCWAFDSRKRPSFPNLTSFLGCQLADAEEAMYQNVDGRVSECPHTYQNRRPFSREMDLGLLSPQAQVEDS
Experiment: Inhibition of human recombinant His-tagged FLT3 kinase domain (564 to 958 residues) expressed in baculovirus expression system incubated for 30 mins in presence of ATP by HTRF analysis
Give measured IC50 for each item. Keep answers brief.

NC1CCN(C(=O)CO/N=C2/C(=C3/C(=O)Nc4ccccc43)Nc3ccccc32)CC1
2.07 nM
CN1CCC(NC(=O)CO/N=C2/C(=C3/C(=O)Nc4ccc(Cl)cc43)Nc3ccccc32)CC1
15 nM
O=C1Nc2ccc(F)cc2/C1=C1/Nc2ccccc2/C1=N\OCCS(=O)(=O)N1CCNCC1
> 50 nM
CN1CCN(C(=O)CO/N=C2/C(=C3/C(=O)Nc4ccc(F)cc43)Nc3ccccc32)CC1
0.93 nM
CN1CC[C@H](NC(=O)CO/N=C2/C(=C3/C(=O)Nc4ccccc43)Nc3ccccc32)C1
2.01 nM
CN1CC[C@@H](NC(=O)CO/N=C2/C(=C3/C(=O)Nc4ccccc43)Nc3ccccc32)C1
1.4 nM
O=C1Nc2ccc(I)cc2/C1=C1/Nc2ccccc2/C1=N\OCC(=O)N1CCNCC1
0.8 nM
CN1CCC(NC(=O)CO/N=C2/C(=C3/C(=O)Nc4ccccc43)Nc3ccccc32)CC1
15.8 nM

Report IC50 for every entry below.
1. O=C(CO/N=C1/C(=C2/C(=O)Nc3ccc(Cl)cc32)Nc2ccccc21)NC1CCNCC1
2. O=C(CO/N=C1/C(=C2/C(=O)Nc3ccc(F)cc32)Nc2ccccc21)NC1CCNCC1
3. O=C1Nc2ccc(Br)cc2/C1=C1/Nc2ccccc2/C1=N\OCC(=O)N1CCNCC1
4. Cl.O=C(CO/N=C1/C(=C2/C(=O)Nc3ccccc32)Nc2ccccc21)N[C@@H]1CCNC1
5. NC1CCN(C(=O)CO/N=C2/C(=C3/C(=O)Nc4ccc(F)cc43)Nc3ccccc32)CC1
6. CN1CCN(C(=O)CO/N=C2/C(=C3/C(=O)Nc4ccccc43)Nc3ccccc32)CC1

(A)
1. 1.18 nM
2. 2.62 nM
3. 0.67 nM
4. 0.29 nM
5. 2.54 nM
6. 1.17 nM

Report IC50 for every entry below.
1. NC1CCN(C(=O)CO/N=C2/C(=C3/C(=O)Nc4ccc(Cl)cc43)Nc3ccccc32)CC1
2. CN1CCN(C(=O)CO/N=C2/C(=C3/C(=O)Nc4ccc(Cl)cc43)Nc3ccccc32)CC1
3. O=C1Nc2ccc(F)cc2/C1=C1/Nc2ccccc2/C1=N\OCC(=O)N1CCNCC1

(A)
1. 1.82 nM
2. 1.3 nM
3. 0.29 nM

Report IC50 for every entry below.
1. O=C1Nc2ccc(OC(F)(F)F)cc2/C1=C1/Nc2ccccc2/C1=N\OCC(=O)N1CCNCC1
2. O=C1Nc2ccc(Cl)cc2/C1=C1/Nc2ccccc2/C1=N\OCC(=O)N1CCNCC1
3. O=C(CO/N=C1/C(=C2/C(=O)Nc3ccccc32)Nc2ccccc21)N[C@H]1CCNC1
4. CN1CCC(NC(=O)CO/N=C2/C(=C3/C(=O)Nc4ccc(F)cc43)Nc3ccccc32)CC1

(A)
3.65 nM
0.27 nM
0.64 nM
7.31 nM
